System: ACHN renal
Assay Procedure: NCI tumour cell line growth inhibition, 48 h
Endpoint Label: TGI (µM)
Use µM as the unit, but write only the number.

[
  {
    "Molecule": "COc1cc2c(cc1OC)C(C)N(C)c1c-2c(OC(C)=O)cc2cc(OC)c(OC)cc12 (configuration not stated)",
    "Units Symbol": "µM",
    "Readout Number": 97
  }
]

Prompt: Hello, I am looking for reported TGI with ACHN renal for `CSC1(SC2=NCCN2)SC2(NCCN2)S1` . Could you help?
Response: 33.2

Prompt: Hello, I am looking for reported TGI with ACHN renal for `C[C@]12CCc3sc(Nc4ccc(O)cc4)nc3C1=CC[C@@H]1[C@@H]2CC[C@]2(C)C(=O)CC[C@@H]12` . Could you help?
Response: 9.29

Prompt: Hello, I am looking for reported TGI with ACHN renal for COC(=O)C1=C(O)c2cc3c(cc2[C@H](c2cc(OC)c(OC)c(OC)c2)C1C(=O)OC)OCO3 (some centres not stated) . Could you help?
Response: 58.1

Prompt: Hello, I am looking for reported TGI with ACHN renal for CC1CCC(C(C)C)C(O[C@@H]2OC(=O)C[C@@H]2Sc2ccccc2)C1 (some centres not stated) . Could you help?
Response: 41.7

Prompt: Hello, I am looking for reported TGI with ACHN renal for Nc1n[nH]c2ccc([C@@H]3Nc4ccc5[nH]ncc5c4[C@H]4C5C=CC(C5)[C@@H]34)cc12 (some centres not stated) . Could you help?
Response: 47.8

Prompt: Hello, I am looking for reported TGI with ACHN renal for CCOc1ccc(NCC2CC/C(=C\c3ccc(O)cc3)C2=O)cc1 (configuration not stated) . Could you help?
Response: 31.2

====

Test system: K-562 leukemia
Assay Procedure: NCI tumour cell line growth inhibition, 48 h
Entries and their measured TGI follow.

[
  {
    "Compound": "COc1ccc(C2(O)c3ccccc3C(=O)N(C)C2(O)c2ccc(OC)cc2)cc1 (centres undefined)",
    "Endpoint Label": "TGI",
    "Result": "> 100 µM"
  },
  {
    "Compound": "COc1ccc(-c2c3c(nc4nc(SC)nc(SC)c24)CCCC3)cc1OC",
    "Endpoint Label": "TGI",
    "Result": "> 100 µM"
  },
  {
    "Compound": "CCCCN(CCCC)c1ccc(C(=NC(C)CCCN(CC)CC)c2ccc(N(C)C)cc2)cc1 (centres undefined)",
    "Endpoint Label": "TGI",
    "Result": "0.549 µM"
  },
  {
    "Compound": "CC(c1ccccc1)/[N+]([O-])=C/c1ccccc1 (centres undefined)",
    "Endpoint Label": "TGI",
    "Result": "> 100 µM"
  },
  {
    "Compound": "Cn1cc(-c2ccc(-c3cn(C)c4ccc(Cl)cc34)s2)c2cc(Cl)ccc21",
    "Endpoint Label": "TGI",
    "Result": "> 100 µM"
  },
  {
    "Compound": "O=C1c2ccccc2CC1C1(O)C(=O)Nc2ccccc21 (centres undefined)",
    "Endpoint Label": "TGI",
    "Result": "> 100 µM"
  },
  {
    "Compound": "CCCCNC(=O)NS(=O)(=O)c1ccc(N2N=C(c3cc(C)ccc3C)CC2c2cc(OC)c(OC)c(OC)c2)cc1 (centres undefined)",
    "Endpoint Label": "TGI",
    "Result": "12.7 µM"
  },
  {
    "Compound": "COc1cc(/C=C/C(=O)c2sc(NNC(C)=O)nc2C)ccc1O",
    "Endpoint Label": "TGI",
    "Result": "> 100 µM"
  },
  {
    "Compound": "N=C(N)c1ccc(COc2ccccc2OCc2ccc(C(=N)N)cc2)cc1",
    "Endpoint Label": "TGI",
    "Result": "> 100 µM"
  },
  {
    "Compound": "O=C1C(=C(I)I)c2ccccc2-c2ccccc21",
    "Endpoint Label": "TGI",
    "Result": "> 34.9 µM"
  }
]

Prompt: # get_value(readout='TGI', item= `C=C=C(Sc1ccccc1)C(C)(C)OC(C)=O` )
Response: 52 µM

Prompt: # get_value(readout='TGI', item= CC#CC1C(OC(=O)c2ccccc2)CCCC1(CI)N=[N+]=[N-] (centres undefined) )
Response: > 100 µM

Prompt: # get_value(readout='TGI', item= `CC(=O)Nc1ccc(/C=C/C(=O)c2sc(-c3nc(C)c(C(=O)/C=C/c4ccc(NC(C)=O)cc4)s3)nc2C)cc1` )
Response: > 100 µM

Prompt: # get_value(readout='TGI', item= `CCOc1ncn(-c2ccc(NC(=S)NC34CC5CC(CC(C5)C3)C4)cc2)n1` )
Response: > 100 µM

Prompt: # get_value(readout='TGI', item= `O=C1Nc2ccccc2/C1=C/c1c(Cl)[nH]c2ccc(O)cc12` )
Response: 17.1 µM

Prompt: # get_value(readout='TGI', item= `O=c1[nH]c(-c2ccccc2)nc2c1sc1nc3ccccc3n12` )
Response: > 100 µM

Prompt: # get_value(readout='TGI', item= `C/C(=N\NC(=S)Nc1ccc(C)cc1)c1nc2ncccc2[nH]1` )
Response: 24.2 µM

Prompt: # get_value(readout='TGI', item= NC(CCCCNC(=O)CNC(=O)OCc1ccccc1)C(=O)NC(CCCCNC(=O)CNC(=O)OCc1ccccc1)C(=O)NC(CCCCNC(=O)CNC(=O)OCc1ccccc1)C(=O)NC(CCCCNC(=O)CNC(=O)OCc1ccccc1)C(=O)NC(CCCCNC(=O)CNC(=O)OCc1ccccc1)C(=O)NC(CCCCNC(=O)CNC(=O)OCc1ccccc1)C(=O)O (centres undefined) )
Response: > 75 µM

Prompt: # get_value(readout='TGI', item= `O=C(Cc1ccccc1)NCCCN(CCCCN(CCCNC(=O)Cc1ccccc1)C(=O)OCc1ccccc1)C(=O)OCc1ccccc1` )
Response: > 100 µM

Prompt: # get_value(readout='TGI', item= `CC(=O)N1N(c2ccc([N+](=O)[O-])cc2)C(=O)C1(C)C` )
Response: 60.5 µM

Prompt: # get_value(readout='TGI', item= `Nc1c(C(=O)Nc2ccccc2)sc2nc3c(cc12)CN(Cc1ccccc1)CC3` )
Response: > 100 µM

Prompt: # get_value(readout='TGI', item= `Clc1nc(NCCc2ccccc2)c2ncn(-c3ccccc3)c2n1` )
Response: 70.5 µM

Prompt: # get_value(readout='TGI', item= COc1cc(/C=C2\C(=O)N(Cc3ccccc3)C(c3ccccc3)S2(=O)=O)cc(OC)c1OC (centres undefined) )
Response: > 100 µM

Prompt: # get_value(readout='TGI', item= C=C1CCc2occ(C)c2C2C1C1=C(CC(C)C1=O)C1OC12C (centres undefined) )
Response: > 100 µM

Prompt: # get_value(readout='TGI', item= `CC(C)(C#N)c1cc(C(=O)Nc2cc(Nc3ncccc3-c3ncnc4nc[nH]c34)ccc2F)cc(C(F)(F)F)c1` )
Response: > 10 µM

Prompt: # get_value(readout='TGI', item= `NC(CCC(=O)O)(CCC(=O)O)CCC(=O)O` )
Response: > 100 µM

Prompt: # get_value(readout='TGI', item= C=CCC(OCCOCC)c1cc(OCCOCC)ccc1OC (centres undefined) )
Response: > 100 µM

Prompt: # get_value(readout='TGI', item= COc1cccc(C2SCC(=O)N2c2ccc(-n3c(-c4ccccc4)nc4ccccc4c3=O)cc2)c1OC (centres undefined) )
Response: > 100 µM

Prompt: # get_value(readout='TGI', item= `CCOC(=O)c1nc(Nc2ccc(Cl)cc2)c2ccccc2n1` )
Response: > 50 µM

Prompt: # get_value(readout='TGI', item= COC(=O)[C@@]12C(=O)C(C)C(=O)[C@]1(C)C(C)=C[C@H]1[C@]3(C=O)CC[C@H](OC(C)=O)C(C)(C)[C@H]3CC[C@@]12C (some centres undefined) )
Response: > 100 µM
